# Assay overview: Pharmacokinetic assays of compounds after oral gavage administration to rats
# Type: in vivo, male SD rats
# Experimental parameters: male SD rats, oral gavage, 30.0 mg/kg, suspension in 0.5% CMC-Na, plasma
Measurement type: MRT(0-∞) (h)

Below: 2 molecules and their reported MRT(0-∞).
C=CC(=O)N1CCC[C@@H](n2nc(-c3ccc(Oc4ccccc4)cc3)c3c(NC(=O)OC(C)C)ncnc32)C1 :: 3.0
C=CC(=O)N1CCC[C@@H](n2nc(-c3ccc(Oc4ccccc4)cc3)c3c(NC(=O)OCCCC)ncnc32)C1 :: 2.9

P = C=CC(=O)N1CCC[C@@H](n2nc(-c3ccc(Oc4ccccc4)cc3)c3c(NC(=O)OCCC)ncnc32)C1
Q = C=CC(=O)N1CCC[C@@H](n2nc(-c3ccc(Oc4ccccc4)cc3)c3c(NC(=O)OCC(C)C)ncnc32)C1
Hey, which is lower on measured MRT(0-∞), P or Q ? # answer = label of selected item
Q
(Q: 2.6 h, P: 4.9 h)
